- target: Recombinant Human Histamine H4 Receptor (Homo sapiens, UniProt Q9H3N8)
- Construct: cell membranes used
- Sequence (Q9H3N8 whole entry): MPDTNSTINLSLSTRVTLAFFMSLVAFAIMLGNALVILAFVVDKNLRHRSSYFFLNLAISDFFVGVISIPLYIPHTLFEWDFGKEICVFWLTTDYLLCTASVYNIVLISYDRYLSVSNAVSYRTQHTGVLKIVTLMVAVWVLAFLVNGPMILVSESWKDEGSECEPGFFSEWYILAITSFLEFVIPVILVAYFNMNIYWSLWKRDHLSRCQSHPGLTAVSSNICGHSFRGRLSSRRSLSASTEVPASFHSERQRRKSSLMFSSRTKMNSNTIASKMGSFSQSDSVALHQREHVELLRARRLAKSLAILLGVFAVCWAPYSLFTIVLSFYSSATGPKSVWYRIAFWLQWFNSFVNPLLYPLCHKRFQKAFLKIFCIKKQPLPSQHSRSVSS
- method: Binding Assay on Recombinant Human Histamine H4 Receptor
- measurement context: competition binding with 3H-histamine, membranes of SK-N-MC or COS7 cells expressing human histamine H4 receptor; Ki by Cheng-Prusoff (KD 5 nM, ligand 5 nM); average of results obtained
pKi: −log10 of the molar value.
test readout: pKi

>>> result("Cc1nc(NCCCC2CCN(C)CC2)ncc1-c1nc2c(Cl)cc(C(F)(F)F)cc2[nH]1")
8.70
>>> result("Cc1cc(C)c2nc(-c3cnc(NCCCC4CCN(C)CC4)nc3C3CCC3)[nH]c2c1")
5.88
>>> result("Cc1c(F)ccc2[nH]c(-c3cnc(NCCCC4CCN(C)CC4)nc3)nc12")
6.54
>>> result("CCc1nc(NCCCC2CCN(C)CC2)ncc1-c1nc2c(C)cccc2[nH]1")
6.96

* * *

- target: Recombinant Human Histamine H4 Receptor (Homo sapiens)
- Construct: cell membranes used
- method: Binding Assay on Recombinant Human Histamine H4 Receptor
- measurement context: competition binding with 3H-histamine, membranes of SK-N-MC or COS7 cells expressing human histamine H4 receptor; Ki by Cheng-Prusoff (KD 5 nM, ligand 5 nM); average of results obtained
test readout: Ki (nM)

>>> result("Cc1c(F)ccc2[nH]c(-c3cnc(NCCCC4CCN(C)CC4)cn3)nc12 [Example 33]")
250
>>> result("Cc1ccc2[nH]c(-c3cnc(NCCCC4CCN(C)CC4)nc3C3CCC3)nc2c1C [Example 13]")
430
>>> result("COc1ccc2[nH]c(-c3cnc(NCCCC4CCN(C)CC4)nc3C)nc2c1 [Example 37]")
81
>>> result("Cc1ccc2[nH]c(-c3cnc(NCCCC4CCN(C)CC4)cn3)nc2c1C [Example 34]")
680
>>> result("CN1CCC(CCCNc2ncc(-c3nc4c(F)c(F)ccc4[nH]3)c(C3CCC3)n2)CC1 [Example 14]")
1010
>>> result("Cc1ccc2[nH]c(-c3cnc(NCCCC4CCN(C)CC4)nc3C)nc2c1C [Example 5]")
4
>>> result("Cc1nc(NCCCC2CCN(C)CC2)ncc1-c1nc2cc(Cl)ccc2[nH]1 [Example 40]")
7
>>> result("Cc1nc(NCCCC2CCN(C)CC2)ncc1-c1nc2c(F)c(F)ccc2[nH]1 [Example 4]")
11
>>> result("Cc1nc(NCCCC2CCN(C)CC2)ncc1-c1nc2c(C(F)(F)F)cc(C(F)(F)F)cc2[nH]1 [Example 35]")
11
>>> result("Cc1cc(C)c2nc(-c3cnc(NCCCC4CCN(C)CC4)nc3C)[nH]c2c1 [Example 2]")
11
>>> result("CCc1nc(NCCCC2CCN(C)CC2)ncc1-c1nc2c(F)c(F)ccc2[nH]1 [Example 9]")
210
>>> result("Cc1nc(NCCCC2CCN(C)CC2)ncc1-c1nc2cc(C(C)(C)C)ccc2[nH]1 [Example 25]")
13
>>> result("CCCc1nc(NCCCC2CCN(C)CC2)ncc1-c1nc2c(C)c(C)ccc2[nH]1 [Example 18]")
2410
>>> result("Cc1cccc2[nH]c(-c3cnc(NCCCC4CCN(C)CC4)nc3C3CC3)nc12 [Example 44]")
560
>>> result("Cc1c(F)ccc2[nH]c(-c3cnc(NCCCC4CCN(C)CC4)nc3C3CCC3)nc12 [Example 16]")
1470
>>> result("Cc1nc(NCCCC2CCN(C)CC2)ncc1-c1nc2c(C)c(Cl)ccc2[nH]1 [Example 26]")
13
>>> result("Cc1nc(NCCCC2CCN(C)CC2)ncc1-c1nc2cc(Cl)c(Cl)cc2[nH]1 [Example 41]")
6

* * *

- target: Recombinant Human Histamine H4 Receptor (Homo sapiens)
- Construct: cell membranes used
- method: Binding Assay on Recombinant Human Histamine H4 Receptor
- measurement context: competition binding with 3H-histamine, membranes of SK-N-MC or COS7 cells expressing human histamine H4 receptor; Ki by Cheng-Prusoff (KD 5 nM, ligand 5 nM); average of results obtained
pKi: −log10 of the molar value.
Classification field: enter Y for pKi values not below 7, N for values below it.

>>> label_class("Cc1ccc2[nH]c(-c3cnc(NCCCC4CCN(C)CC4)nc3C(F)(F)F)nc2c1C")
"N"
>>> label_class("Cc1ccc2[nH]c(-c3cnc(NCCCC4CCN(C)CC4)nc3C3CC3)nc2c1C")
"N"
>>> label_class("Cc1nc(NCCCC2CCN(C)CC2)ncc1-c1nc2c(C)c(F)ccc2[nH]1")
"Y"
>>> label_class("CN1CCC(CCCNc2ncc(-c3nc4cc(F)c(F)cc4[nH]3)c(C(F)(F)F)n2)CC1")
"N"
>>> label_class("Cc1nc(NCCCC2CCN(C)CC2)ncc1-c1nc2c(C)cc(F)cc2[nH]1")
"Y"
>>> label_class("CCc1nc(NCCCC2CCN(C)CC2)ncc1-c1nc2c(C)cc(C)cc2[nH]1")
"Y"
>>> label_class("Cc1nc(NCCCC2CCN(C)CC2)ncc1-c1nc2c(F)cc(F)cc2[nH]1")
"Y"
>>> label_class("Cc1cc(C)c2nc(-c3cnc(NCCCC4CCN(C)CC4)nc3C(C)C)[nH]c2c1")
"N"
>>> label_class("CN1CCC(CCCNc2ncc(-c3nc4c(Cl)cc(Cl)cc4[nH]3)c(C(F)(F)F)n2)CC1")
"Y"
>>> label_class("Cc1nc(NCCCC2CCN(C)CC2)ncc1-c1nc2cc(C#N)ccc2[nH]1")
"N"
>>> label_class("Cc1nc(NCCCC2CCN(C)CC2)ncc1-c1nc2c(C)cccc2[nH]1")
"Y"

* * *

- target: Recombinant Human Histamine H4 Receptor (Homo sapiens)
- Construct: cell membranes used
- method: Binding Assay on Recombinant Human Histamine H4 Receptor
- measurement context: competition binding with 3H-histamine, membranes of SK-N-MC or COS7 cells expressing human histamine H4 receptor; Ki by Cheng-Prusoff (KD 5 nM, ligand 5 nM); average of results obtained
Overview of reported Ki across a group of compounds:
test readout: Ki (nM)

>>> result("Cc1nc(NCCCC2CCN(C)CC2)ncc1-c1nc2cc(F)ccc2[nH]1")
59
>>> result("Cc1nc(NCCCC2CCN(C)CC2)ncc1-c1nc2cc(Cl)c(F)cc2[nH]1")
15
>>> result("CCCc1nc(NCCCC2CCN(C)CC2)ncc1-c1nc2c(F)c(C)ccc2[nH]1")
470
>>> result("Cc1nc(NCCCC2CCN(C)CC2)ncc1-c1nc2cc(C(F)(F)F)ccc2[nH]1")
12
>>> result("Cc1ccc2[nH]c(-c3cnc(NCCCC4CCN(C)CC4)nc3C(C)C)nc2c1C")
360
>>> result("CC(C)c1nc(NCCCC2CCN(C)CC2)ncc1-c1nc2c(F)c(F)ccc2[nH]1")
6110
>>> result("Cc1c(F)ccc2[nH]c(-c3cnc(NCCCC4CCN(C)CC4)nc3C(C)C)nc12")
230
>>> result("Cc1cc(F)cc2[nH]c(-c3cnc(NCCCC4CCN(C)CC4)nc3C3CC3)nc12")
230

* * *

- target: Recombinant Human Histamine H4 Receptor (Homo sapiens)
- Construct: cell membranes used
- method: Binding Assay on Recombinant Human Histamine H4 Receptor
- measurement context: competition binding with 3H-histamine, membranes of SK-N-MC or COS7 cells expressing human histamine H4 receptor; Ki by Cheng-Prusoff (KD 5 nM, ligand 5 nM); average of results obtained
pKi: −log10 of the molar value.
Overview of reported pKi across a group of molecules:
test readout: pKi

>>> result("Cc1c(F)ccc2[nH]c(-c3cnc(NCCCC4CCN(C)CC4)nc3C3CC3)nc12 [Example 48]")
6.85
>>> result("Cc1c(F)ccc2[nH]c(-c3cnc(NCCCC4CCN(C)CC4)nc3C(F)(F)F)nc12 [Example 27]")
7.04
>>> result("Cc1cc(F)cc2[nH]c(-c3cnc(NCCCC4CCN(C)CC4)nc3C(F)(F)F)nc12 [Example 28]")
7.21
>>> result("Cc1nc(NCCCC2CCN(C)CC2)ncc1-c1nc2ccccc2[nH]1 [Example 22]")
6.96
>>> result("Cc1cc(C)c2nc(-c3cnc(N(C)CCCC4CCN(C)CC4)nc3C)[nH]c2c1 [Example 7]")
7.08
>>> result("Cc1cc(C)c2nc(-c3cnc(NCCCC4CCN(C)CC4)nc3C3CC3)[nH]c2c1 [Example 47]")
7.00
